# assaySystem: T1, SURP1 (res. 48–110) of human SF3A1, K80D mutant (human, UniProt Q15459 48-110, K80D)
# T1 sequence: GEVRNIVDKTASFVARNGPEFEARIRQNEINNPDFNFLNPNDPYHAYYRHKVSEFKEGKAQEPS
# protocol: BLI
Ends that are not written are not given here.
outcomeMeasure: Kd
The reply must contain the numeric value and, after it, the unit.

Problem: Query (binder): QRPGDPQSAQDKARMDKEYLSLMAELGEAPVPA (peptide, UniProt Q15637 295-327, looked up, also: biotin (position not given here)) [biotin-tagged SF1 S1BRp (res. 295–327)] ; field requested: Kd
Result: 132 µM
